Hey, just so you know, these numbers are from the Immune Epitope Database (IEDB).

target: HLA-B*35:01; experiment: IEDB peptide-MHC binding, purified MHC/competitive/radioactivity; filed as Kd, often an IC50 or EC50 that approximates it; bounds were set here for any values at or beyond the usual limits of such assays; conditions: source organism: Dengue virus 3 Sri Lanka/1266/2000
measured_property: Kd (nM)
Give the value in nM but do not write nM after it.

(Q) Param readout= Kd; system= HLA-B*35:01; entry= MILPAALAF ; returns value.
(A) 394

----------
target: HLA-A*30:02; test: IEDB peptide-MHC binding, purified MHC/competitive/radioactivity; filed as Kd, often an IC50 or EC50 that approximates it; bounds were set here for any values at or beyond the usual limits of such assays; conditions: source organism: Dengue virus 3 Martinique/1243/1999
measured_property: pKd
The scale used: pKd is minus the common logarithm of the concentration in molar units.

(Q) Given the sequence SQHNHRPGY , what is its reported pKd?
(A) 7.54

Below: the item to evaluate.
(Q) Given the sequence KLITQFETY , what is its reported pKd?
(A) 5.11

----------
target: HLA-A*68:02; assay: IEDB peptide-MHC binding, purified MHC/competitive/radioactivity; filed as Kd, often an IC50 or EC50 that approximates it; bounds were set here for any values at or beyond the usual limits of such assays; conditions: source organism: Homo sapiens
measured_property: Kd

(Q) Given the sequence SMEAEMIQL , what is its reported Kd?
(A) ≥ 52.5 µM

----------
Each entry below carries its recorded Kd.
target: HLA-B*39:01; test: IEDB peptide-MHC binding, purified MHC/competitive/fluorescence; filed as Kd, often an IC50 or EC50 that approximates it; bounds were set here for any values at or beyond the usual limits of such assays; details: source organism: Homo sapiens

(Q) Given the sequence RTDNGGWAH , what is its reported Kd?
(A) ≥ 20 µM

Below: the item to evaluate.
(Q) Given the sequence GTEYRLTLY , what is its reported Kd?
(A) ≥ 20 µM

----------
molecular target: HLA-B*18:01; experiment: IEDB peptide-MHC binding, purified MHC/direct/fluorescence; filed as Kd, often an IC50 or EC50 that approximates it; bounds were set here for any values at or beyond the usual limits of such assays; conditions: source organism: Mammarenavirus juninense
measured_property: Kd

(Q) Param readout= Kd; system= HLA-B*18:01; entry= QLAKRSEIL ; returns value.
(A) ≥ 20 µM

----------
biological target: HLA-A*69:01; experiment: IEDB peptide-MHC binding, purified MHC/direct/fluorescence; filed as Kd, often an IC50 or EC50 that approximates it; bounds were set here for any values at or beyond the usual limits of such assays; conditions: source organism: Marburg virus - Musoke, Kenya, 1980
measured_property: pKd
The scale used: pKd is minus the common logarithm of the concentration in molar units.

(Q) Given the sequence FLYDRIAST , what is its reported pKd?
(A) 5.74

----------
target: HLA-B*46:01; assay: IEDB peptide-MHC binding, purified MHC/competitive/fluorescence; filed as Kd, often an IC50 or EC50 that approximates it; bounds were set here for any values at or beyond the usual limits of such assays; details: source organism: Vibrio parahaemolyticus K5030
measured_property: Kd

(Q) Given the sequence LQNFCQHLV , what is its reported Kd?
(A) ≥ 20 µM

----------
target: HLA-B*58:01; assay: IEDB peptide-MHC binding, purified MHC/direct/fluorescence; filed as Kd, often an IC50 or EC50 that approximates it; bounds were set here for any values at or beyond the usual limits of such assays; conditions: source organism: Klebsiella pneumoniae
measured_property: Kd

(Q) Given the sequence LLQEKYGLI , what is its reported Kd?
(A) ≥ 20 µM
